Would you mind telling me the reported activity change, negative = inhibition of each entry?
# procedureSummary: NFAT Signaling Pathway (AID 444);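 also: carbachol stimulus at about its EC50 of 1 µM final; % is scaled to controls: 0 for no effect and ±100 for the full control effect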
# conditionDescription: Jurkat NFAT-bla M1, carbachol, beta-lactamase ratio, 5 h; at 17.2 µM (top of the series) unless noted
Inconclusive results are not listed. Active and inactive are the calls of the source. Calls follow the shape of the dose curve; as a rule, active = well fitted curve in either direction with a large enough effect (not every such curve was filed as active); inconclusive = small, poorly fitted or top-dose-only effect, or another doubt; inactive = flat fitted curve, though single readings scatter.

What does the record list as activity change, negative = inhibition for CC1=C(c2ccc(Cl)cc2)[N+](=O)C(C)(C)N1[O-] ?
13.4% (inactive)

What does the record list as activity change, negative = inhibition for CCC(=O)N[C@@H]1CC(C(C)(C)NC(=O)CC)CC=C1C (stereo partly specified) ?
6.85% (inactive)

What does the record list as activity change, negative = inhibition for O=C(O)c1cc(Cl)cc(Cc2cc(Cl)cc(C(=O)O)c2O)c1O ?
10.6% [at 7.69 µM] (inactive)

What does the record list as activity change, negative = inhibition for C=CC(O)Cc1c(C)n[nH]c1C (stereo unspecified) ?
4.36% (inactive)

What does the record list as activity change, negative = inhibition for CC(NC(=O)Nc1nnc(C(F)(F)F)s1)(C(F)(F)F)C(F)(F)F ?
0.893% (inactive)

Further cases:
What does the record list as activity change, negative = inhibition for CC1(C(=O)CSc2nc3ccccc3[nH]2)CCC(=O)O1 (stereo unspecified) ?
3.87% (inactive)
